These entries and their values trace back to PubChem BioAssay (NCI).

- System: A549/ATCC NSCLC
- EXPERIMENT_NOTES: NCI-60 one-dose screen, 48 h (100 = growth as untreated, 0 = no growth, -100 = all killed)
- EXPERIMENTAL_SETUP: 10 µM unless noted
Compounds without any hit were thinned out: in the full panel of roughly 83,000, 20% have a hit.
// false strictly below 60% in growth; true otherwise

Reference set, count: 5
COC(=O)c1ccc2c(c1)nc(-c1ccc(Cl)cc1)n2-c1cc(C(C)(C)C)[nH]n1 = false
O=C(O)c1ccccc1Oc1cc(-c2ccco2)nc(OCCN2CCOCC2)n1 = true
CC(=O)c1ccc(Br)c([N+](=O)[O-])c1 = true
CC(=O)Nc1ccc(/C=N/N2CCCCCC2)cc1 = true
c1ccc(-c2ccc(-c3ccccc3)[nH]2)cc1 = true

Enquiry: Determine whether this compound has growth no lower than 60%: Cc1cc(-c2ccccc2)on1
Return: true

Enquiry: Determine whether this compound has growth no lower than 60%: C=CCN(CC#N)CC=C
Return: true

Enquiry: Determine whether this compound has growth no lower than 60%: COC(=O)OC1C(O[C@H]2C[C@H]3[C@@H]4CC=C5C[C@@H](O)CC[C@]5(C)[C@H]4CC[C@]3(C)[C@H]2[C@H](C)C(=O)CCC(C)C)OCC(O)C1OC1OCC(O)C(O)C1OC(=O)c1ccc(OC)cc1 (stereo not given in full)
Return: false

Enquiry: Determine whether this compound has growth no lower than 60%: CCOC(=O)Nc1ccc2nc(N3CCCCCC3)sc2c1
Return: false

Enquiry: Determine whether this compound has growth no lower than 60%: COc1cc(C2CC(c3ccccc3)=NN2C=O)ccc1Oc1ccnc2cc(Cl)ccc12 (stereo not given)
Return: false

====

- Tested on: IGROV1 ovarian
- EXPERIMENT_NOTES: NCI-60 one-dose screen, 48 h (100 = growth as untreated, 0 = no growth, -100 = all killed)
- EXPERIMENTAL_SETUP: 10 µM unless noted
This is part of a sample that, as a whole, favours compounds with a hit. Of some 83,000 tested, about 20% had one in any assay.
growth: recorded values
The figure you give is taken to be in %; do not add the unit.

# count of solved cases: 6
CN1CCC2(CC1)N=C(SCC(=O)Nc1cnc3ccccc3c1)C(c1ccc(Br)cc1)=N2 = 16.2
Cc1ccc(Nc2cccc3ccccc23)cc1 = 73.2
CCN(CC)c1ccc2c(cc1=O)[C@@H](NC(C)=O)CCc1cc(OC)c(OC)c(OC)c1-2 = 28
NNC(=O)CSc1nc2scc(-c3ccccc3)c2c(=O)n1-c1ccccc1 = 102
COc1cnc2c(c1)C(=O)c1c-2n(CCCN2CCNCC2)c(=O)c2cc(Cl)ccc12 = 51.4
CCOC(=O)c1cnc(SCC)nc1SC#N = 98.7

Enquiry: Requested field: growth. Item: CO[C@H](C(=O)[C@@H](O)[C@@H](C)O)[C@@H]1Cc2cc3cc(O[C@H]4C[C@@H](O[C@H]5C[C@@H](O)[C@H](O)C(C)O5)[C@H](O)C(C)O4)c(C)c(O)c3c(O)c2C(=O)[C@H]1O[C@H]1C[C@@H](O[C@H]2C[C@@H](O[C@H]3C[C@](C)(O)C(=O)C(C)O3)[C@@H](O)C(C)O2)[C@H](O)C(C)O1 (stereo partly drawn)
Return: 12.2

Enquiry: Requested field: growth. Item: O=C(O)C(CCc1ccccc1)NCc1ccccc1 (stereo not drawn)
Return: 101
